Entry source: PubChem BioAssay (NCI)

# Tested on: UACC-257 melanoma
# method notes: NCI tumour cell line growth inhibition, 48 h
measurement type: TGI (µM)
Numbers only, in µM.

Some solved cases for reference:
| molecule | target under test | TGI / µM |
| --- | --- | --- |
| CCN(CC)CC(O)CNc1c2ccc(Cl)cc2nc2ccc(OC)cc12 (stereo unspecified) | UACC-257 melanoma | 3.27 |
| COC1/C(=C\c2ccccc2I)c2ccccc2N1C(C)=O (stereo unspecified) | UACC-257 melanoma | 44.1 |
| O=c1c2ccccc2n2c(-c3ccc(O)cc3)nnc2n1-c1ccccc1 | UACC-257 melanoma | 41.8 |
| O=C1C=C(Nc2ccc(Br)cc2)c2ccccc2C1=O | UACC-257 melanoma | 26.5 |

Input O=C1Nc2c(Cl)cc(Cl)cc2C1=O . Output TGI: 35.1
